Origin of the recorded values: patent US11578084B2

target: human recombinant dopamine D2 receptor (Homo sapiens (Human)); experiment: Test of binding inhibition for dopamine D2 receptor ([3H]-Methylspiperone SPA); conditions: Jump-In HEK cell membranes, 1.2 nM [3H]-Methylspiperone, 120 min at 25° C.; read-out: hD2_Ki
Sequence (P14416 whole entry): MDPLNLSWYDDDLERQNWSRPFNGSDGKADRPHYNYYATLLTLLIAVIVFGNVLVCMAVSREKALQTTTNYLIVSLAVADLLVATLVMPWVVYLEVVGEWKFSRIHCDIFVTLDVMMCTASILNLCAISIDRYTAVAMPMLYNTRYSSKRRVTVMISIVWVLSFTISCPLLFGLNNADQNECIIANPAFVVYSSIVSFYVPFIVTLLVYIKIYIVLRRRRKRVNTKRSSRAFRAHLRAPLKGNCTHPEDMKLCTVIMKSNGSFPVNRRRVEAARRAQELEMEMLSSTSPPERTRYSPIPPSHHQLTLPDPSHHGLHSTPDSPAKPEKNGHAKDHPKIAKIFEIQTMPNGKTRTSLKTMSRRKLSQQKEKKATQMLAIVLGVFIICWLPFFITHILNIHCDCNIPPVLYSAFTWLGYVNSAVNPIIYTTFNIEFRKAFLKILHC
What Ki was measured for each of the following?
Give the value in µM but do not write µM after it.

Ask: Tell me measured Ki for Cn1c(C(=O)N[C@H]2CC[C@](F)(CCN3CCc4ccc(OCC(F)F)nc4CC3)CC2)cccc1=O [Example I-029] please.
Reply: 0.61

Ask: Tell me measured Ki for CC[C@@H](C)Oc1ccc2c(n1)CCN(CC[C@]1(F)CC[C@@H](NC(=O)Cc3nnc(C)o3)CC1)CC2 [Example I-108] please.
Reply: 1.2

Ask: Tell me measured Ki for C[C@@H](Oc1nc2c(s1)CCN(CC[C@H]1CC[C@H](NC(=O)COc3cnn(C)c3)CC1)CC2)C(F)(F)F [Example I-120] please.
Reply: 0.84

Ask: Tell me measured Ki for CC(F)(F)COc1nc2c(s1)CCN(CC[C@H]1CC[C@H](NC(=O)c3cnn4ccccc34)CC1)CC2 [Example I-051] please.
Reply: 1.1

Ask: Tell me measured Ki for CC[C@@H](C)Oc1ccc2c(n1)CCN(CC[C@]1(F)CC[C@@H](NC(=O)Cc3nnc(C)s3)CC1)CC2 [Example I-109] please.
Reply: 0.61
